All figures here come from patent US8802597B2.

Test system: crabgrass (Digitaria sanguinalis)
Test: Test C pre/postemergence
Type: in vivo
Details: Digitaria sanguinalis, post-emergence, Postemergence, 31 g ai/ha; read-out: Plant response rating (scale of 0 to 100), Crabgrass
recordedMetric: pest or weed control at 31 g/ha (%)
Number in %, nothing else.

CCOC(=O)c1nc(-c2ccc(Cl)cc2)nc(N)c1Cl
70
CCOC(=O)c1nc(C2CC2)nc(N)c1F
0
Nc1nc(-c2ccc(Br)cc2)nc(C(=O)O)c1Cl
80

Please find the next compound below.
## Task Name the recorded pest or weed control at 31 g/ha for COC(=O)c1nc(C2CC2)nc(N)c1Br .
## Result 40
